Exercise: state measured pIC50 for each of the compounds provided.
# study_system: human H3 receptor (Homo sapiens, UniProt Q9Y5N1)
# Construct: expressed in transfected cells
# Sequence (Q9Y5N1 whole entry): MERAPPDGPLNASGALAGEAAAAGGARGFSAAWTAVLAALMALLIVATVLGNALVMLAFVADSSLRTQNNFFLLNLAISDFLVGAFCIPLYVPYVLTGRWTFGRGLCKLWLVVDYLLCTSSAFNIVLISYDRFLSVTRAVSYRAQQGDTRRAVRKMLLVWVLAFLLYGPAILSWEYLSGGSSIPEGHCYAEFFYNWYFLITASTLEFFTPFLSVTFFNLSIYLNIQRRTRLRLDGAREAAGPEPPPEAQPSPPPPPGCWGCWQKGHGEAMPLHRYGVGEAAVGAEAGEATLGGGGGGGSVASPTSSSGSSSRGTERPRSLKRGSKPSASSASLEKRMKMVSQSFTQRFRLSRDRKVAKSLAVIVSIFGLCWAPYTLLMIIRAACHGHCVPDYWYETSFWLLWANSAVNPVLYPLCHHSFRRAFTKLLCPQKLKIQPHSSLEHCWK
# protocol_description: In vitro H3 functional assay (cAMP response element driven luciferase reporter)
# Assay type: cell-based
# measurement_parameters: CHO(dhfr+)-cre-luc cells expressing human H3 receptor; RαMH 10 nM, forskolin 1 μM; read-out: hH3 functional IC50
Scale: pIC50 equals -log10([C]), with [C] in mol/L.

Input O=C(NCc1cccc(C(F)(F)F)c1)c1ccc2c(c1)CCN(C1CCC1)CC2 [Example 59] . Output pIC50: 8.52

Entry under test: O=C(NCc1cccc(-c2nccs2)c1)c1ccc2c(c1)CCN(C1CCC1)CC2 [Example 69] . Its pIC50 was 9.30

get_value(item= CCn1nccc1CNC(=O)c1ccc2c(c1)CCN(C1CCC1)CC2 [Example 100] , readout=pIC50) returns 9.30

Value of measured pIC50 for the entry COc1ccc(C(=O)NCc2ccc3c(c2)CCN(C2CC(O)C2)CC3)cn1 (stereo not drawn) [Example 262] : 8.00

Looking up CCC(=O)N1CCC[C@H](CC(O)Cc2ccc3c(c2)CCN(C2CCC2)CC3)C1 (single isomer, unassigned) [Example 251] , I see its pIC50 listed as 8.22

For O=C(NCC1CCCCC1)c1ccc2c(c1)CCN(C1CCC1)CC2 [Example 34] the compound record lists pIC50 as 8.30

compound O=C(NCc1ccc2c(c1)CCN(C1CCC1)CC2)N1CCCC1 [Example 194] , pIC50 observed: 8.15

Please fill in: pIC50 reported for O=C(NCc1ccc2c(c1)CCN(C1CC(F)C1)CC2)c1ccc(N2CCCC2)nc1 (stereo not drawn) [Example 242] = 8.52

Sure, the documented pIC50 for Cn1c(CNC(=O)c2ccc3c(c2)CCN(C2CCC2)CC3)nc2ccccc21 [Example 79] is 8.52

Per the record, CNC(=O)c1ccc2c(c1)CCN(C1CCC1)CC2 [Example 24] has pIC50 of 7.80

Query Nc1ncccc1CNC(=O)c1ccc2c(c1)CCN(C1CCC1)CC2 [Example 44] yields pIC50 of 8.52

// sample Cc1c(CNC(=O)c2ccc3c(c2)CCN(C2CCC2)CC3)cnn1C [Example 97] , its pIC50 was 8.70

Entry O=C(NCc1cccnc1)c1ccc2c(c1)CCN(C1CCCC1)CC2 [Example 20] — recorded pIC50 = 8.52

So, Cc1ncc(C(=O)NCc2ccc3c(c2)CCN(C2CCC2)CC3)cn1 [Example 211] ? Its pIC50 was 8.05

Noted for O=C(NCC1CCCO1)c1ccc2c(c1)CCN(C1CCC1)CC2 (stereo not drawn) [Example 36] : its pIC50 reads 8.70

Cn1nc(CNC(=O)c2ccc3c(c2)CCN(C2CCC2)CC3)c2ccccc21 [Example 73] has a reported pIC50 of 9.00

Kindly note the recorded pIC50 for O=C(NCc1ccc2c(c1)CCN(C1CCC1)CC2)c1cnc(N2CCCC2)nc1 [Example 256] , which is 8.52

Value of measured pIC50 for the entry O=C(Cc1ccc2c(c1)CCN(C1CCC1)CC2)Nc1cccnc1 [Example 224] : 8.40

Source listed as patent US20110124626A1.
